target: human SGLT1 (Homo sapiens (Human), UniProt P13866); assay: SGLT1 inhibitory activity: 14C-AMG uptake into CHO-K1 cell line stably expressing human SGLT1; assay type: cell-based; details: 14C-AMG uptake, CHO-K1 cells stably expressing human SGLT1
Sequence (P13866 whole entry): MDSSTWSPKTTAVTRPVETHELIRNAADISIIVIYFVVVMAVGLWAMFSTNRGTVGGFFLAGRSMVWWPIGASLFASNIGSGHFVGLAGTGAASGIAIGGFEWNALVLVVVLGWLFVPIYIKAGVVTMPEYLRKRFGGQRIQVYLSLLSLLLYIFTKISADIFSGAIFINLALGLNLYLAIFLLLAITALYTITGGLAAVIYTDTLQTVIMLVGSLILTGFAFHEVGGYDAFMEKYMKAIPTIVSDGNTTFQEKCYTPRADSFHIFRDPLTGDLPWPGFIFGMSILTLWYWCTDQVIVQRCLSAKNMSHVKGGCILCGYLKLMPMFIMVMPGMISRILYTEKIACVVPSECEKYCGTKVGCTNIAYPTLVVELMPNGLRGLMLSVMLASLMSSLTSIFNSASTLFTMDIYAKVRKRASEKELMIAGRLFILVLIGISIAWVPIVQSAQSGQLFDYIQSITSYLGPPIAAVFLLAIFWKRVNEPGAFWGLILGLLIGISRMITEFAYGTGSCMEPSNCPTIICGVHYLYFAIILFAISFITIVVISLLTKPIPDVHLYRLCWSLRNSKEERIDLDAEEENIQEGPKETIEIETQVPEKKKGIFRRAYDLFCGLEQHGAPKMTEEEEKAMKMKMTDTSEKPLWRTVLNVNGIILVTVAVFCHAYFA
pIC50: −log10 of the molar value.
Answer FALSE if pIC50 is under 8, and TRUE if it is 8 or more.

The examples below pair each entry with its known result.
> print(dat)
                                   compound  group
1  CCOc1cc(-n2nc(NC(=O)[C@@H]3CNC(=O)C3)cc2-c2cccc(OC(F)(F)F)c2)ccc1F [Example 421]  FALSE
2  O=C1C[C@H](C(=O)Nc2cc(-c3cc(Cl)cc(COCC(F)(F)F)c3)n(-c3cccc(F)c3)n2)CN1 [Example 588]  FALSE
3  CCCc1cccc(-c2cc(NC(=O)[C@@H]3CNC(=O)C3)nn2-c2cccc(C(C)C)c2)c1 [Example 392]   TRUE

Exam item: decide whether the reported pIC50 for O=C1NC[C@H](C(=O)Nc2cc(-c3cccc(COCCC(F)(F)F)c3)n(-c3ccccc3)n2)O1 [Example 337] is at least 8. FALSE

Exam item: decide whether the reported pIC50 for CCCOc1cccc(-n2nc(NC(=O)[C@@H]3CNC(=O)C3)cc2-c2cccc(COCC(F)(F)F)c2)c1 [Example 448] is at least 8. TRUE

Exam item: decide whether the reported pIC50 for COCCOc1cccc(-n2nc(NC(=O)[C@@H]3CNC(=O)C3)cc2-c2cccc(CO[C@H](C)C(F)(F)F)c2)c1F [Example 487] is at least 8. FALSE

Exam item: decide whether the reported pIC50 for CC[C@H](C)OCc1cccc(-c2cc(NC(=O)[C@@H]3CNC(=O)C3)nn2-c2ccccc2)c1 [Example 351] is at least 8. FALSE
